METHOD_SUMMARY: NCI Yeast Anticancer Drug Screen. Data for the bub3 strain (AID 167)
CONDITION_PARAMETERS: S. cerevisiae bub3 mutant strain, at 50.0 µM, hits give high values
About 79,000 compounds went through this panel and 15% of them were active in at least one assay; those are over-represented in the sample as a whole.
Item-by-item account of growth inhibition
Provide only the numeric value, understood in %.

Some entries whose results are on file:
Endpoint output: growth inhibition of CCOC(=O)/C=C(\N)c1ccccc1 . Value? -30.4

Endpoint output: growth inhibition of Cn1c(=O)c2c(n(C)c1=O)n1c(=O)c3ccccc3nc1n2C . Value? -7.3

Endpoint output: growth inhibition of Cc1cc(N(CCC#N)CCC#N)ccc1/C=C(\NC(=O)/C=C/c1ccccc1)C(=O)Nc1ccc(Cl)cc1 . Value? 3.9

More entries:
Endpoint output: growth inhibition of Cc1cccc(NC(=O)/C=C/C(=O)O)c1 . Value? -29.6

Endpoint output: growth inhibition of COc1ccc(C(=O)N/N=C/c2cccc(OC)c2OC)cc1 . Value? 13.1

Endpoint output: growth inhibition of O=C(Nc1ccccc1F)C(c1ccccc1)c1ccccc1 . Value? 11.8

Just for reference, PubChem BioAssay (NCI) is where these values come from.
